system tested: T1, rat GIP receptor (rat, UniProt P43219 19-455)
T1 construct: whole, on cells; LGIPR2 cells also carry a cAMP-dependent VIP promoter-lacZ reporter; also called LGIPR2 cells; LGIRP2 cells
T1 sequence (looked up): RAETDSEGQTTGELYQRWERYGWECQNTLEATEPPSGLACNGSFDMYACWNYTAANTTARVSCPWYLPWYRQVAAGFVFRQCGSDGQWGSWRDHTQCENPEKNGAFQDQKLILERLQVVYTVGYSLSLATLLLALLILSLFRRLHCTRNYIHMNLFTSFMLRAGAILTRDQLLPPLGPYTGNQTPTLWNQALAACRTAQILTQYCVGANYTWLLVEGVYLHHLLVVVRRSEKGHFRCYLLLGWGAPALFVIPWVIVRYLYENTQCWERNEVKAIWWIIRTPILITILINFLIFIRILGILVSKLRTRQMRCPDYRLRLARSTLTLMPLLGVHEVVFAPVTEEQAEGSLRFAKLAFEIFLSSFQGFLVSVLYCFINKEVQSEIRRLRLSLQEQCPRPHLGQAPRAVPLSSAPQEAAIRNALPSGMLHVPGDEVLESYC
protocol: competition with [125I]GIP (porcine) for binding to LGIPR2 cells carrying the rat GIP receptor, room temperature
Where no end group is shown, it is not given here.
experimental endpoint: IC50 (nM)
Please state the figure in nM; there is no need to write the unit.

input: // lookup IC50 for ISDYSIAMDKIRQQDFVNWLLAQK-NH2 (also called ANTGIP; ANTGIIP) [GIP (7-30)-NH2]
output: 200
